System: Vero E6 infected with SARS-CoV-2
Experiment: SARS-CoV-2 infection rate relative to infected DMSO; higher = more infection, active = 60 or less
Conditions: 24 h
observed-property: SARS-CoV-2 infection rate (%)
Please give a number only; it is taken to be in %.

Worked set:
molecule: CC(C)(C)c1ccc(CN(Cc2cccc(OCC(=O)O)c2)S(=O)(=O)c2cccnc2)cc1 [evatanepag] (10 µM)
measurement-unit: %
SARS-CoV-2 infection rate: 97.5

molecule: Cc1cccc(/C=N/Nc2cc(N3CCOCC3)n3nc(-c4ccncc4)cc3n2)c1 (10 µM)
measurement-unit: %
SARS-CoV-2 infection rate: 50.5

molecule: CCN(CC)CCNC(=O)c1c(C)[nH]c(/C=C2\C(=O)Nc3ccc(F)cc32)c1C [sunitinib] (0.833333 µM)
measurement-unit: %
SARS-CoV-2 infection rate: 99

molecule: CC(C)(C)C1CCc2c(sc(NC(=O)c3ccco3)c2C(=O)O)C1 (stereo not drawn) (0.833333 µM)
measurement-unit: %
SARS-CoV-2 infection rate: 106

molecule: CC(/C=C1\SC(=S)N(CC(=O)O)C1=O)=C\c1ccccc1 [epalrestat] (10 µM)
measurement-unit: %
SARS-CoV-2 infection rate: 106

molecule: CCCc1ccc(C(=O)O)cc1 [4-propylbenzoic-acid] (10 µM)
measurement-unit: %
SARS-CoV-2 infection rate: 95

molecule: FC(F)c1nc2ccccc2n1-c1nc(N2CCOCC2)nc(N2CCOCC2)n1 (10 µM)
measurement-unit: %
SARS-CoV-2 infection rate: 108

// next entry
Asked: Report measured SARS-CoV-2 infection rate; entry is Fc1cc(-c2cccc3ncc(-c4cnn(C5CCNCC5)c4)nc23)cc(F)c1CN1CCOCC1 (0.833333 µM)
Given back: 116

###

System: Vero E6 infected with SARS-CoV-2
Assay: inhibition of SARS-CoV-2 cytopathic effect; higher = more antiviral protection, active = above 15
Conditions: 10000 nM; 48 h
Reported inhibition of SARS-CoV-2 cytopathic effect values for the following molecules.
The answer is to be given in %; state only the numeric part.

molecule: O=C(O)c1cc(=O)c2ccccc2[nH]1 [kynurenic-acid]
study-target: Vero E6 infected with SARS-CoV-2
measured-result: 1.89

molecule: O=C(CN1C(=O)C2(CCCC2)NC[C@H]1c1cc(F)cc(F)c1)Nc1ccc2c(c1)C[C@@]1(C2)C(=O)Nc2ncccc21
study-target: Vero E6 infected with SARS-CoV-2
measured-result: -2.55

molecule: CC12CC3CC(C)(C1)CC(N)(C3)C2 [memantine]
study-target: Vero E6 infected with SARS-CoV-2
measured-result: -1.57

molecule: CN1CCCCC1Cn1cc(C(=O)c2cc([N+](=O)[O-])ccc2I)c2ccccc21 (stereo unspecified)
study-target: Vero E6 infected with SARS-CoV-2
measured-result: 4.92

molecule: Cc1ccc(OCCSc2ncccn2)c(Br)c1
study-target: Vero E6 infected with SARS-CoV-2
measured-result: -1.49

molecule: CN1C2CCC1CC(OC(c1ccccc1)c1ccc(Cl)cc1)C2 (stereo unspecified)
study-target: Vero E6 infected with SARS-CoV-2
measured-result: 17.4

molecule: CC(C)C[C@H](NC(=O)CNC(=O)[C@H](Cc1ccc(O)cc1)NC(=O)[C@H](CO)NC(=O)[C@H](Cc1c[nH]c2ccccc12)NC(=O)[C@H](Cc1cnc[nH]1)NC(=O)[C@@H]1CCC(=O)N1)C(=O)N[C@@H](CCCNC(=N)N)C(=O)N1CCC[C@H]1C(=O)NCC(N)=O [gonadorelin]
study-target: Vero E6 infected with SARS-CoV-2
measured-result: 1.93

molecule: C[C@@H]1C[C@H]2[C@@H]3C[C@H](F)C4=CC(=O)C=C[C@]4(C)[C@@]3(F)[C@@H](O)C[C@]2(C)[C@@]1(O)C(=O)CO [flumethasone]
study-target: Vero E6 infected with SARS-CoV-2
measured-result: 0.56

In the following, a different molecule is considered.
Asked: Given the molecule O=C(NCCCN1CCOCC1)c1cnn2c(-c3ccccc3)cc(-c3ccccc3)nc12 [reversan] , write its reported inhibition of SARS-CoV-2 cytopathic effect.
Given back: -6.41
